Reference source: PubChem BioAssay (NCI)

Tested on: MDA-MB-468 breast
method.notes: NCI-60 one-dose screen, 48 h
experimental.setup: 10 µM
Compounds without any hit were thinned out: in the full panel of roughly 83,000, 20% have a hit. Activity calls are given as the source filed them. The calls were made as follows: active = growth percent below 10; inactive = the rest.
Please reply with one of these outcomes: true (1) for active, false (0) for inactive

Solved cases (6 shown):
molecule	qualitative.label
O=C(Nc1cccc(Br)c1)Oc1cccc2cccnc12	false (0)
CC1(C)OB(c2ccc(Cn3cc(F)c(=O)[nH]c3=O)cc2)OC1(C)C	false (0)
CS/C(=C\c1ccc(C(=O)c2ccc(C)cc2)n1C)S(C)=O (configuration not stated)	false (0)
CNC(=O)c1cc(Oc2ccc(CC(=O)Nc3cc(C(C)(C)C)nn3C)cc2)ccn1	true (1)
CC(=O)/C=C/c1ccc(N(CCO)Cc2ccc(C(C)(C)C)cc2)cc1	false (0)
CCN(Cc1ccccc1)c1ccc(/C=C2\COc3ccccc3C2=O)cc1	false (0)

Please indicate how the test categorized O=c1[nH]cc(F)c(=O)[nH]1 .
false (0)

====

Tested on: SK-MEL-5 melanoma
method.notes: NCI-60 one-dose screen, 48 h (100 = growth as untreated, 0 = no growth, -100 = all killed)
experimental.setup: 10 µM
The panel holds about 83,000 compounds, 20% with a hit somewhere; the sample as a whole holds those more often.
Listing: growth of selected compounds
Provide the reading as a plain figure in %.

Would you mind telling me what growth value was observed for Cn1cc(-c2nnc(N)nc2-c2c[nH]c3ccc(F)cc23)c2cc(Br)cnc21 ?
81.9

Would you mind telling me what growth value was observed for O=C(CN1CCN(c2ncnc3c2cnn3-c2ccccc2)CC1)Nc1ccc(Cl)cc1 ?
0.35

Would you mind telling me what growth value was observed for O=C(Nc1ccc(OCc2ccc(Cl)cc2)cc1)Nc1ccc(Cl)c(C(F)(F)F)c1 ?
-81.4

Would you mind telling me what growth value was observed for COc1ccc(NCc2cn(-c3ccc(C(=O)O)cc3)nc2-c2ccc(F)cc2)cc1C(F)(F)F ?
26.7

====

Test system: PC-3 prostate
method.notes: NCI-60 one-dose screen, 48 h
experimental.setup: 10 µM
This is part of a sample that, as a whole, favours compounds with a hit. Of some 83,000 tested, about 20% had one in any assay. Active and inactive are the calls of the source. How the source made its calls: active means growth percent below 10; inactive means the rest.
Please reply with one of these outcomes: active, inactive

Solved cases (2 shown):
compound	target.desc	qualitative.label
Cc1ccc2c(c1)C(=O)/C(=C/c1c[nH]c3ccccc13)S2	PC-3 prostate	inactive
Cn1cc(/C=C(/SS/C(=C/c2cn(C)c3cccc(C(=O)O)c23)C(=O)O)C(=O)O)c2c(C(=O)O)cccc21	PC-3 prostate	inactive

Please indicate how the test categorized COc1cc2oc(-c3cccc(C(=O)Nc4ccc(Cl)cc4)c3)cc(=O)c2c(OCCNC(=O)[C@@H](N)CO)c1OC .
inactive

Please indicate how the test categorized CCOC(=O)C1=C(N)N(c2ccc(C)cc2)C2=C(C(=O)CC(C)(C)C2)C1c1ccccc1Br (stereo not drawn) .
inactive

Please indicate how the test categorized COc1ccc(C(=O)COc2ccc(NC(=O)Nc3ccc(Cl)c(C(F)(F)F)c3)cc2)cc1 .
active

Please indicate how the test categorized O=C(CC(=O)Nc1ccc(Oc2ncnc3scc(Nc4n[nH]c(=S)s4)c23)cc1)Nc1ccc(Cl)cc1 .
inactive

Please indicate how the test categorized O=C(Nc1ccc(OCc2ccc(Cl)cc2)cc1)Nc1ccc(Cl)c(C(F)(F)F)c1 .
active

Please indicate how the test categorized CC1(C)CC(=O)C2=C(C1)N(Cc1ccc(C(=O)O)cc1)C1=C(C(=O)CC(C)(C)C1)C2c1ccc(Cl)cc1 .
inactive

====

Test system: MDA-MB-468 breast
method.notes: NCI-60 one-dose screen, 48 h
experimental.setup: 10 µM unless noted
About 83,000 compounds went through this panel and 20% of them were active in at least one assay; those are over-represented in the sample as a whole. Activity calls are given as the source filed them. Rule for the calls: active = growth percent below 10; inactive = the rest.
Please reply with one of these outcomes: label 1 for active, label 0 for inactive

Solved cases (8 shown):
compound	qualitative.label
COc1ccc(-c2nsc3c2NC(=O)CC3c2cccc(F)c2)cc1 (configuration not stated)	label 0
CNC(=O)c1cc(Oc2ccc3nc(NC(=O)c4cc(C)cc(C)c4)sc3c2)ccn1	label 0
COc1cccc2c(=O)c3c(sc12)c(NCCN(C)C)nc1ccccc13	label 0
C#CCOc1ccccc1C(Nc1ccccc1)c1nnnn1C1CCCCC1 (configuration not stated)	label 0
O=C(CN1C(=O)S/C(=C\C(Cl)=C\c2ccccc2)C1=O)NCCCn1ccnc1	label 1
O=C(O)c1ccc(-n2c(=O)n(-c3cccc(C(F)(F)F)c3)c(=O)c3cc(-c4ccc(F)cc4F)ccc32)cc1	label 1
Cc1c(O)cccc1O	label 0
O=c1c2cc(F)ccc2sc2c(NCCO)nc3ccccc3c12	label 0

Please indicate how the test categorized CSc1ccc(-c2cc(-c3ccc(NC(=O)CCCN4CCCC4)cc3)nc(-c3ccc(NC(=O)CCCN4CCCC4)cc3)c2)cc1 .
label 0

Please indicate how the test categorized O=C(NCCNc1nccc(-c2c(-c3cccc(O)c3)nc3sccn23)n1)Nc1cccc(C(F)(F)F)c1 .
label 1

Please indicate how the test categorized COc1cc2c(c3c1c(=O)c1cccc(F)c1n3C)C=CC(C)(C)O2 .
label 0

Please indicate how the test categorized COc1ccc(C2CC(=O)c3c(O)c(OC)c(OC)c(OC)c3O2)c(O)c1 (configuration not stated) .
label 1

Please indicate how the test categorized c1ccc2cc(C[n+]3ccn(CCCCCCCn4cc[n+](Cc5ccc6ccccc6c5)c4)c3)ccc2c1 .
label 1

Please indicate how the test categorized CN1CCN(c2ccc3nc(-c4[nH]ncc4Nc4ncnc5c4OCCCN5)[nH]c3c2)CC1 .
label 1

Please indicate how the test categorized CCCCCCCCCCC(=O)CCCCCCCCCC .
label 0

====

Listing: growth of selected compounds
System: MDA-MB-468 breast
method.notes: NCI-60 one-dose screen, 48 h (100 = growth as untreated, 0 = no growth, -100 = all killed)
experimental.setup: 10 µM unless noted
Compounds without any hit were thinned out: in the full panel of roughly 83,000, 20% have a hit.
Provide the reading as a plain figure in %.

compound	growth [%]
O=C(CSc1nc2ccccc2c(=O)n1-c1ccccc1)Nc1cccc(C(=O)/C=C/c2ccccc2)c1	91.3

Would you mind telling me what growth value was observed for COC(=O)c1ccc2[nH]c(O)c(C(=Nc3ccc(N(C)C(=O)CN4CCN(C)CC4)cc3)c3ccccc3)c2c1 ?
52.3

Would you mind telling me what growth value was observed for CC1(C)OC2OC3C(CN)OC(c4ccccc4)OC3C2O1 (stereo not given) ?
116

Would you mind telling me what growth value was observed for COc1ccc(C2CC(c3ccc4ccccc4c3)=NN2c2nc(O)c(C3=c4cc(OC)ccc4=NC3=O)s2)cc1 (stereo not given) ?
-46.5

Would you mind telling me what growth value was observed for CCCCCCCCCCC1OC(C)CC(C)O1 (stereo not given) ?
98.5

====

System: SN12C renal
method.notes: NCI-60 one-dose screen, 48 h (100 = growth as untreated, 0 = no growth, -100 = all killed)
experimental.setup: 10 µM
The panel holds about 83,000 compounds, 20% with a hit somewhere; the sample as a whole holds those more often. The source made the active and inactive calls. The calls were made as follows: active = growth percent below 10; inactive = the rest.
metric: growth

compound	growth
COc1cccc(O)c1/C=C1\SCc2cc3c(OC)cccc3[o+]c21	101% (inactive)
COc1ccc(Cc2nn(CC(=O)N/N=C/c3ccc([N+](=O)[O-])cc3)c(=O)c3c(C)noc23)cc1	39% (inactive)
O=C(Nc1ccc(OCc2ccc(F)cc2)cc1)Nc1ccc(Cl)c(C(F)(F)F)c1	21.9% (inactive)

Would you mind telling me what growth value was observed for Fc1ccc(-c2csc(Nc3cccc(Nc4nc(-c5ccc(F)cc5)cs4)c3)n2)cc1 ?
47.2% (inactive)

Would you mind telling me what growth value was observed for COc1ccc(C(=O)COc2ccc(NC(=O)Nc3ccc(Cl)c(C(F)(F)F)c3)cc2)cc1 ?
40.9% (inactive)

Would you mind telling me what growth value was observed for Cn1cc(-c2nnc(N)nc2-c2c[nH]c3ccc(F)cc23)c2cc(Br)cnc21 ?
72.3% (inactive)

Would you mind telling me what growth value was observed for O=C(Nc1ccc(Oc2ncnc3scc(Nc4n[nH]c(=S)s4)c23)cc1)C1(C(=O)Nc2cccc(C(F)(F)F)c2)CC1 ?
108% (inactive)

Would you mind telling me what growth value was observed for O=C(CC(=O)Nc1ccc(Oc2ncnc3scc(Nc4n[nH]c(=S)s4)c23)cc1)Nc1ccc(Cl)cc1 ?
88.1% (inactive)

====

Listing: growth of selected compounds
Test system: MDA-MB-468 breast
method.notes: NCI-60 one-dose screen, 48 h (100 = growth as untreated, 0 = no growth, -100 = all killed)
experimental.setup: 10 µM unless noted
Compounds without any hit were thinned out: in the full panel of roughly 83,000, 20% have a hit.
Provide the reading as a plain figure in %.

Solved cases below.
compound	target.desc	result.unit	growth
COC(=O)c1ccc(CSc2nnc(-c3ccncc3)o2)cc1	MDA-MB-468 breast	%	115
C=C1C(=O)O[C@H]2[C@H]1CC/C(COC(=O)NCCc1ccc(OC)cc1)=C\CC[C@@]1(C)O[C@@H]21	MDA-MB-468 breast	%	-2.57
CCN(CC)c1ccc(C(=N)c2ccc(N(C)C)cc2)cc1	MDA-MB-468 breast	%	5.37
C/C(=N/NC(N)=S)C(=O)O	MDA-MB-468 breast	%	39.2
O=C(CBr)OCc1ccc([N+](=O)[O-])o1	MDA-MB-468 breast	%	109

Would you mind telling me what growth value was observed for CS(=O)(=O)c1ccc(-c2nc3cc(Cl)ccc3n2CC(=O)N/N=C/c2ccc(Cl)cc2)cc1 ?
96.6

Would you mind telling me what growth value was observed for O=C(Nc1ccc(Oc2ccc(F)cc2)c(Cl)c1)c1cccnn1 ?
39.3

Would you mind telling me what growth value was observed for O=[N+]([O-])c1ccc(N=Nc2cc(S(=O)(=O)O)c3cccc(S(=O)(=O)O)c3c2O)cc1 ?
118
